System: 699152-130-R-J1-PDC complex spheroid growth;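 note: compound exposure lasted 7 days after spheroids had grown for 3 days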
Test: Anticancer human tumor 699152-130-R-J1-PDC patient-derived pancreatic carcinoma cell line growth inhibition [AhR]
Conditions: second compound 0.1 µM; first compound 0.0316 µM; hits give low values
experimentalEndpoint: viability, T/C (%)
Give the quantity in %, number only.

// known answers, use as guide
CC(C)c1c(-c2ccccc2)nc2c(C#N)c[nH]n2c1=O + Cc1ccccc1N=Nc1ccc(NC(=O)c2ccnn2C)c(C)c1
104
COc1cc(Nc2ncc3c(n2)-c2ccc(Cl)cc2C(c2c(F)cccc2OC)=NC3)ccc1C(=O)O + Cc1cncc(-c2nc(NCCc3c[nH]c4ccccc34)c3ncn(C(C)C)c3n2)c1
80.3

Query: Report viability, T/C for Cn1ncnc1C1c2n[nH]c(=O)c3cc(F)cc(c23)NC1c1ccc(F)cc1 (stereo not drawn) + Cc1cncc(-c2nc(NCCc3c[nH]c4ccccc34)c3ncn(C(C)C)c3n2)c1 please.
Response: 105

The origin of these recorded values is PubChem BioAssay AID1919001.
